Assay: NCI Yeast Anticancer Drug Screen. Data for the bub3 strain (AID 167)
Details: S. cerevisiae bub3 mutant strain, at 50.0 µM, hits give high values
Procedure: Growth inhibition of yeast strains with defined genetic alterations is measured as a screen for potential anti-cancer activity. Selected strains with alterations in DNA damage repair or cell cycle control were exposed to compounds and growth inhibition was measured relative to vehicle treated controls. The strain used in this assay is bub3
About 79,000 compounds went through this panel and 15% of them were active in at least one assay; those are over-represented in the sample as a whole.
Reported endpoint: growth inhibition (%)
Reply numerically in %, unit not repeated.

Recorded growth inhibition, per entry:
CC(=O)CC(=O)OC1CC(C)CCC1C(C)C (configuration not stated) = -26.1
O=C(O)/C=C/C(=O)N(c1ccccc1)N(C(=O)/C=C/C(=O)O)c1ccccc1 = 5.55
O=C(O)C(Cc1ccccc1)C(=O)O.[NH2-].[NH2-].[Pt+2] = 1.25
CC(C)C(O)(C(=O)O)C(C)C = -17.9

Qu. Look up growth inhibition: FC(F)(F)C(F)(F)C(F)(F)c1nc(C(F)(F)C(F)(F)C(F)(F)F)nc(C(F)(F)C(F)(F)C(F)(F)F)n1
Ans. 15.1

Qu. Report growth inhibition for N=C(/C(=C/c1cccc2ccccc12)c1ccccc1)c1ccccc1 please.
Ans. -13.7

Qu. Consider the compound shown here: c1ccc(CC2COC(c3cccs3)=N2)cc1 (configuration not stated) What is its recorded growth inhibition?
Ans. 31.2

Qu. If you can, please state the reported growth inhibition value of O=C(Nc1ccc(Cl)cc1)c1ccc(C(=O)Nc2ccc(Cl)cc2)cc1 .
Ans. -6.4

Qu. What does the record list as growth inhibition for O=C(OC1CCCCC1)C(=O)OC1CCCCC1 ?
Ans. -5.45

Qu. Item COC1CCC(O)C(C=Nc2ccccc2)C1 (configuration not stated) has what recorded growth inhibition?
Ans. 8.5

Qu. Which growth inhibition value is on record for CCCCCCCCCCCCCCCCCC(=O)OCC1OC(OC2(OC(=O)CCCCCCCCCCCCCCCCC)OC(COC(=O)CCCCCCCCCCCCCCCCC)C(OC(=O)CCCCCCCCCCCCCCCCC)C2OC(=O)CCCCCCCCCCCCCCCCC)C(OC(=O)CCCCCCCCCCCCCCCCC)C(OC(=O)CCCCCCCCCCCCCCCCC)C1OC(=O)CCCCCCCCCCCCCCCCC (configuration not stated) ?
Ans. 17.9

Qu. What value of measured growth inhibition is listed for COc1cc(OC)c(NC(=O)ON2C(=O)c3ccccc3C2=O)cc1Cl ?
Ans. 0.5

----------
Assay: NCI Yeast Anticancer Drug Screen. Data for the mec2-1 strain (AID 157)
Conditions: S. cerevisiae mec2-1 strain, at 50.0 µM, hits give high values
This is part of a sample that, as a whole, favours compounds with a hit. Of some 79,000 tested, about 15% had one in any assay.
# maps each entry to its growth inhibition
Report the figure in % without appending any unit label.

Some solved entries appear below for comparison.
Cc1cncc(C)c1 = -22.1
COC(=O)C1(C)CCCC2(C)C3CC(O)C(C(C)C)=CC3(O)CCC12 (stereo not given) = -4.65
CC[N+](C)(CC)CCOC(=O)C(C1=CCCCC1)C1(O)CCCCC1 (stereo not given) = -15.8

Qu. Look up growth inhibition for this compound: O=C(O)c1cc(-c2c(Cl)cccc2Cl)nc2cc3ccccc3cc12
Ans. 15.8

Qu. Which measured growth inhibition value corresponds to Cc1ccc(S(=O)(=O)NC(=O)C2S(=O)(=O)OCCOS2(=O)=O)cc1 ?
Ans. 4.15
